B1: library; a variant is named by its letters at N, in order (parent)
chain: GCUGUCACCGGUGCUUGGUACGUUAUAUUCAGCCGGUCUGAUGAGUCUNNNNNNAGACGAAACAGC

Variants of: B1
Assay: normalized RNA/DNA level without ligand (relative to sTRSVctl = 100) (log10 (% of sTRSVctl)); HEK293T overexpressing SLC46A1; higher = less ribozyme self-cleavage, higher mRNA level
Details: without (6R,S)-folinic acid; ligand present: no
// reported normalized RNA/DNA level without ligand (log10) per item
Number only, please.

SEQUENCE CHAIN: GCUGUCACCGGUGCUUGGUACGUUAUAUUCAGCCGGUCUGAUGAGUCUCACCCGAGACGAAACAGC
VALUE REPORTED: 2.02

SEQUENCE CHAIN: GCUGUCACCGGUGCUUGGUACGUUAUAUUCAGCCGGUCUGAUGAGUCUGGUUGGAGACGAAACAGC
VALUE REPORTED: 2.04

SEQUENCE CHAIN: GCUGUCACCGGUGCUUGGUACGUUAUAUUCAGCCGGUCUGAUGAGUCUCAUAACAGACGAAACAGC
VALUE REPORTED: 1.97

SEQUENCE CHAIN: GCUGUCACCGGUGCUUGGUACGUUAUAUUCAGCCGGUCUGAUGAGUCUUUGUUGAGACGAAACAGC
VALUE REPORTED: 1.96

SEQUENCE CHAIN: GCUGUCACCGGUGCUUGGUACGUUAUAUUCAGCCGGUCUGAUGAGUCUUCAUAUAGACGAAACAGC
VALUE REPORTED: 1.95

SEQUENCE CHAIN: GCUGUCACCGGUGCUUGGUACGUUAUAUUCAGCCGGUCUGAUGAGUCUCAAAGUAGACGAAACAGC
VALUE REPORTED: 1.98

SEQUENCE CHAIN: GCUGUCACCGGUGCUUGGUACGUUAUAUUCAGCCGGUCUGAUGAGUCUUCACCCAGACGAAACAGC
VALUE REPORTED: 2.05

SEQUENCE CHAIN: GCUGUCACCGGUGCUUGGUACGUUAUAUUCAGCCGGUCUGAUGAGUCUUCUCCUAGACGAAACAGC
VALUE REPORTED: 2.01

(Q) Provide one value: measured normalized RNA/DNA level without ligand (log10) of GCUGUCACCGGUGCUUGGUACGUUAUAUUCAGCCGGUCUGAUGAGUCUAGGGAAAGACGAAACAGC
(A) 1.97

(Q) Provide one value: measured normalized RNA/DNA level without ligand (log10) of GCUGUCACCGGUGCUUGGUACGUUAUAUUCAGCCGGUCUGAUGAGUCUCGCUUAAGACGAAACAGC
(A) 2

(Q) Provide one value: measured normalized RNA/DNA level without ligand (log10) of GCUGUCACCGGUGCUUGGUACGUUAUAUUCAGCCGGUCUGAUGAGUCUCUUAUAAGACGAAACAGC
(A) 1.96

(Q) Provide one value: measured normalized RNA/DNA level without ligand (log10) of GCUGUCACCGGUGCUUGGUACGUUAUAUUCAGCCGGUCUGAUGAGUCUGCACUGAGACGAAACAGC
(A) 2

(Q) Provide one value: measured normalized RNA/DNA level without ligand (log10) of GCUGUCACCGGUGCUUGGUACGUUAUAUUCAGCCGGUCUGAUGAGUCUGAAGUCAGACGAAACAGC
(A) 2.05

(Q) Provide one value: measured normalized RNA/DNA level without ligand (log10) of GCUGUCACCGGUGCUUGGUACGUUAUAUUCAGCCGGUCUGAUGAGUCUAGACGCAGACGAAACAGC
(A) 2.02

(Q) Provide one value: measured normalized RNA/DNA level without ligand (log10) of GCUGUCACCGGUGCUUGGUACGUUAUAUUCAGCCGGUCUGAUGAGUCUAGAAGAAGACGAAACAGC
(A) 1.95

(Q) Provide one value: measured normalized RNA/DNA level without ligand (log10) of GCUGUCACCGGUGCUUGGUACGUUAUAUUCAGCCGGUCUGAUGAGUCUUUACGUAGACGAAACAGC
(A) 1.97
